system: SK-MEL-28 melanoma; assay: NCI tumour cell line growth inhibition, 48 h
Measurement Label: TGI

| Compound | Experimental Value |
| --- | --- |
| O=C(CSc1nc2ccccc2c(=O)n1-c1ccccc1)N=Nc1c(O)[nH]c2ccc(Br)cc12 | 13.8 µM |
| C/C(=C1\C(=O)Nc2ccccc21)c1cccc(/C(C)=C2/C(=O)Nc3ccccc32)n1 | > 100 µM |
| CN(N=O)C(=O)NC(CCCCNC(=O)OCc1ccccc1)C(=O)OCc1ccccc1 (centres undefined) | 56.1 µM |
| O=C1C(NS(=O)(=O)c2ccccc2)=C(n2ccnc2)C(=O)c2ccccc21 | > 100 µM |
| CC[O-].CC[O-].[O-]c1ccccc1C=NC12CC3CC(CC(C3)C1)C2.[O-]c1ccccc1C=NC12CC3CC(CC(C3)C1)C2.[Ti+4] | > 100 µM |
| N#Cc1cnc2ccc(NCc3cnc[nH]3)cc2c1Nc1ccc(F)c(Cl)c1 | 58.4 µM |
| CC1(N2CCOCC2)CC2C(=[N+]1[O-])CCC/C2=N/O (centres undefined) | > 100 µM |
| Cc1c2ccccc2c(/C=N/NC(=O)CSCC(=O)N/N=C/c2c3ccccc3c(C)c3ccccc23)c2ccccc12 | > 100 µM |
| COC(=O)/C(=C(/C)c1ccco1)P(=O)(OC)OC | > 100 µM |
